Test system: Tracheal chains of guinea pig
EXPERIMENT NOTES: In vitro bronchodilator activity, isolated tracheal chain (ITC)
Assay type: cell-based
TEST CONDITIONS: Cavia porcellus, relaxation 50% of the maximum response to 0.1 mcg./ml. of isoproterenol
Please assign a class to every record based on measured EC50, with ranges low end (below 0.09 mg/L), middle (0.09 mg/L to below 0.4 mg/L), high end (0.4 mg/L or more)

COMPOUND | CLASSIFICATION
CCCCCOc1nc(N)c2ncn(C3C=CCCC3)c2n1 (centres unmarked) [n-C5 H11 O / drawing 31] | high end
CCCCCCOc1nc(N)c2ncn(C3CCCCC3)c2n1 [n-C6 H13 O / drawing 30, 2-n-Hexyloxy-9-cyclohexyl-9H-adenine] | high end
CCOc1nc(N)c2ncn(C3CCCCC3)c2n1 [C2 H5 O / drawing 30, 2-Ethoxy-9-cyclohexyl-9H-adenine] | middle
Cn1c(=O)c2[nH]cnc2n(C)c1=O [aminophylline] | high end
CCCCOc1nc(N)c2ncn(C3C=CCCC3)c2n1 (centres unmarked) [n-C4 H9 O / drawing 31, 9-(2-Cyclohexenyl)-2-n-butoxy-9H-adenine] | low end
CCCCOc1nc(N)c2ncn(C3CCCCC3)c2n1 [n-C4 H9 O / drawing 30, 2-n-Butoxy-9-cyclohexyl-9H-adenine] | low end
CC(C)COc1nc(N)c2ncn(C3CCCCC3)c2n1 [isO-C4 H9 O / drawing 30, 2-Isobutoxy-9-cyclohexyl-9H-adenine] | middle
Nc1nc(Cl)nc2c1ncn2C1C=CCCC1 (centres unmarked) [Cl / drawing 31, 2-Chloro-9-(2-cyclohexenyl)-9H-adenine] | middle
CCCCCOc1nc(N)c2ncn(C3CCCCC3)c2n1 [n-C5 H11 O / drawing 30, 2-n-Pentyloxy-9-cyclohexyl-9H-adenine] | high end
CCCOc1nc(N)c2ncn(C3C=CCCC3)c2n1 (centres unmarked) [n-C3 H7 O / drawing 31] | low end
CCCOc1nc(N)c2ncn(C3CCCCC3)c2n1 [n-C3 H7 O / drawing 30, 9-Cyclohexyl-2-n-propoxy-9H-adenine] | low end
CCCCCCOc1nc(N)c2ncn(C3C=CCCC3)c2n1 (centres unmarked) [n-C6 H13 O / drawing 31] | high end
